Molecular target: human 5-HT6 receptor (Homo sapiens, UniProt P50406)
Construct: expressed in transfected cells
Sequence (P50406 whole entry): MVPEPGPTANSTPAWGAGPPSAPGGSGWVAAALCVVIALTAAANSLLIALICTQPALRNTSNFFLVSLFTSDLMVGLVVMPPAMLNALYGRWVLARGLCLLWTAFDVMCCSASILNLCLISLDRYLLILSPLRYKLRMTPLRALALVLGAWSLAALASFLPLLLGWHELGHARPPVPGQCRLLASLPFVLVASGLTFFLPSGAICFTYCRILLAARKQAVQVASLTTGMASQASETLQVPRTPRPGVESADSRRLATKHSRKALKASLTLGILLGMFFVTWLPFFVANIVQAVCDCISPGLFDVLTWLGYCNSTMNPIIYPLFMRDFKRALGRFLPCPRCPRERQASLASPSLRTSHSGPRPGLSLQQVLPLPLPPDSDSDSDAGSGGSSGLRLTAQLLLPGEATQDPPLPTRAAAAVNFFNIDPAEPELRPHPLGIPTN
Assay: GPCR radioligand binding assay, [3H]-LSD displacement, HEK293 membranes
Settings: 5-HT6; replicate exp_2
Assign labels as follows, please: rule met for %inh 5-HT6 exp_2 below 40%; rule not met for %inh 5-HT6 exp_2 equal to or exceeding 40%.

[ask] # check: %inh 5-HT6 exp_2 < 40% for O=C1CCC(=O)N(c2ccccc2)N1 [H7]
[reply] rule met

[ask] # check: %inh 5-HT6 exp_2 < 40% for O=C(Nc1ccccc1)C1CC1 [F6]
[reply] rule not met

[ask] # check: %inh 5-HT6 exp_2 < 40% for COc1cccc(NC2=NCCCCC2)c1 [E8]
[reply] rule met

[ask] # check: %inh 5-HT6 exp_2 < 40% for COc1ccccc1N1CCNCC1 [A10]
[reply] rule not met

----------
Molecular target: human 5-HT1A receptor (Homo sapiens, UniProt P08908)
Construct: expressed in transfected cells
Sequence (P08908 1-422): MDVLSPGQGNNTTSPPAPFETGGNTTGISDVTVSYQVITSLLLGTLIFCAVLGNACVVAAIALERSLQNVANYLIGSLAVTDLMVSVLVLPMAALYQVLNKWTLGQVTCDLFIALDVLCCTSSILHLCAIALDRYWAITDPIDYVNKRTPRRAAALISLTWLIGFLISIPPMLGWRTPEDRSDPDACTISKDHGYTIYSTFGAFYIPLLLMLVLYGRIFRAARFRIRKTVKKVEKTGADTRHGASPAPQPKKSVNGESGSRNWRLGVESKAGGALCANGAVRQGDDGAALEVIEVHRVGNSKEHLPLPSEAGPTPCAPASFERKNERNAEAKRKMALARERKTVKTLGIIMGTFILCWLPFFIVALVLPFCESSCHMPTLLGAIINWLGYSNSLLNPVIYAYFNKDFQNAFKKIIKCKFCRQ
Test: GPCR radioligand binding assay, [3H]-8-OH-DPAT displacement, HEK293 membranes
Settings: 5-HT1A; replicate exp_2
property name: %inh 5-HT1A exp_2 (%)
Just the number in %, nothing appended.

What the record says about `Oc1cnc(-c2ccccc2)nc1` : %inh 5-HT1A exp_2 is -1.43

What the record says about `CCc1nccn1CC(=O)O` : %inh 5-HT1A exp_2 is 14

What the record says about O=C(O)CC1CCC(=O)N1 (stereo not drawn) : %inh 5-HT1A exp_2 is 8.47

What the record says about `Brc1ccc(-c2ccon2)cc1` : %inh 5-HT1A exp_2 is 3

What the record says about `O=c1ccc2c([nH]1)CCCC2` : %inh 5-HT1A exp_2 is 15

What the record says about `O=C1CCC(=O)N(c2ccccc2)N1` : %inh 5-HT1A exp_2 is 5.53

What the record says about `COc1ccc(CN2CCNCC2)cc1F` : %inh 5-HT1A exp_2 is -23

What the record says about `CN(C)c1cc(CN)ccn1` : %inh 5-HT1A exp_2 is 10

What the record says about `O=C1CC(CSc2ccc(Cl)cc2)=NN1` : %inh 5-HT1A exp_2 is 3.38

What the record says about `N#CCCN1CCc2ccccc21` : %inh 5-HT1A exp_2 is -12

What the record says about `FC1(F)CNCC(F)(F)O1` : %inh 5-HT1A exp_2 is -23

What the record says about `Cc1ccc(C)n1Cc1ccccc1Cl` : %inh 5-HT1A exp_2 is 8

What the record says about `COC(=O)c1c(C)nc(C2CC2)[nH]c1=O` : %inh 5-HT1A exp_2 is 15

What the record says about `CS(=O)(=O)c1ccc(OC(F)(F)F)cc1` : %inh 5-HT1A exp_2 is -40

What the record says about `Cc1cc(-c2ccccc2)n[nH]1` : %inh 5-HT1A exp_2 is 9

What the record says about O=C(O)C1CCCN(C(=O)N2CCCC2)C1 (stereo not drawn) : %inh 5-HT1A exp_2 is 9

What the record says about O=C(c1ccncc1)N1CCNCC1 [E2] : %inh 5-HT1A exp_2 is -6

What the record says about `O=C1CCN(c2ccncc2)CC1` : %inh 5-HT1A exp_2 is 3.54

What the record says about `Cc1nccn1Cc1cccc(C#N)c1` : %inh 5-HT1A exp_2 is 13

What the record says about `Oc1ccc(-n2cncn2)cc1` : %inh 5-HT1A exp_2 is 6

What the record says about `O=c1[nH]ncc2c1oc1ccccc12` : %inh 5-HT1A exp_2 is 0.625

What the record says about `N[C@H]1c2ccccc2C[C@H]1CO` : %inh 5-HT1A exp_2 is 18

What the record says about NC1CCc2ccccc21 (stereo not drawn) : %inh 5-HT1A exp_2 is 16

What the record says about `O=C1NC2(CCCC2)Nc2ccccc21` : %inh 5-HT1A exp_2 is -4.46

What the record says about Fc1ccc(CC2CCCNC2)cc1 (stereo not drawn) : %inh 5-HT1A exp_2 is 19

What the record says about `CCCN1C(=O)CC(=O)NC1=S` : %inh 5-HT1A exp_2 is -8

What the record says about `Cc1nc(-c2ccccc2)cs1` : %inh 5-HT1A exp_2 is 4

What the record says about `Oc1nnc(-c2ccccc2)o1` : %inh 5-HT1A exp_2 is -10

What the record says about `Cn1nc(C(F)(F)F)cc1O` : %inh 5-HT1A exp_2 is 21

What the record says about `NC(c1ccccc1)c1ccccc1` : %inh 5-HT1A exp_2 is -1.84

----------
Target: human 5-HT7b receptor (Homo sapiens, UniProt P34969)
Construct: expressed in transfected cells
Sequence (P34969 1-432): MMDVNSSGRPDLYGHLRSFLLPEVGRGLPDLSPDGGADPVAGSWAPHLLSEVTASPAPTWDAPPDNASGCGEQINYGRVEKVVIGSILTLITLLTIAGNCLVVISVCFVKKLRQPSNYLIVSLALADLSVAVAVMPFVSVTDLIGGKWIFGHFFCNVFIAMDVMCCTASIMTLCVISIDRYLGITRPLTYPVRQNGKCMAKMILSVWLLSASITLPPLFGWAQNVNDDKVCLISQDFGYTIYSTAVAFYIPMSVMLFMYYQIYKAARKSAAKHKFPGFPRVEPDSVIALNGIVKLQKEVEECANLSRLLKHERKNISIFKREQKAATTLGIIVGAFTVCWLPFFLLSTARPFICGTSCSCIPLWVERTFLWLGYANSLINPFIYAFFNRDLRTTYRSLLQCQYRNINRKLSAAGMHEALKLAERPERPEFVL
Assay: GPCR radioligand binding assay, [3H]-5-CT displacement, HEK293 membranes
Details: 5-HT7; replicate exp_1
property name: %inh 5-HT7 exp_1 (%)
Just the number in %, nothing appended.

What the record says about `O=c1ccc2c([nH]1)CCCC2` : %inh 5-HT7 exp_1 is 0.605

What the record says about `O=C(O)c1ccc(CN2CCOCC2)cc1` : %inh 5-HT7 exp_1 is 11

What the record says about `COC(=O)c1c(C)nc(C2CC2)[nH]c1=O` : %inh 5-HT7 exp_1 is 23

What the record says about `Brc1ccc(-c2ccon2)cc1` : %inh 5-HT7 exp_1 is 1.16

What the record says about `Cc1cc(C)c2c(=O)[nH]n(C)c2n1` : %inh 5-HT7 exp_1 is 14

What the record says about `Fc1ccc2c(C3CCNCC3)c[nH]c2c1` : %inh 5-HT7 exp_1 is 78

What the record says about `N[C@H]1c2ccccc2C[C@H]1CO` : %inh 5-HT7 exp_1 is 14

What the record says about `CCn1cnc2ccccc21` : %inh 5-HT7 exp_1 is 1.55

What the record says about Nc1ccc(SC(F)F)cc1 [D1] : %inh 5-HT7 exp_1 is 5.58

What the record says about `O=C(Nc1ccccc1)C1CC1` : %inh 5-HT7 exp_1 is -1.55

What the record says about `CN(C)c1cc(CN)ccn1` : %inh 5-HT7 exp_1 is -1.11

What the record says about `O=C1CCCc2occc21` : %inh 5-HT7 exp_1 is 8

What the record says about `c1cnc2c(c1)NCCC2` : %inh 5-HT7 exp_1 is 6

What the record says about `N#Cc1ccc2ncsc2c1` : %inh 5-HT7 exp_1 is -6

What the record says about `O=C(NC1CC1)c1ccccc1O` : %inh 5-HT7 exp_1 is 1.81

What the record says about `Cc1cc(N)no1` : %inh 5-HT7 exp_1 is -8

What the record says about `O=C1NC2(CCCC2)Nc2ccccc21` : %inh 5-HT7 exp_1 is -2.47

What the record says about `Oc1nnc(-c2ccccc2)o1` : %inh 5-HT7 exp_1 is -12

What the record says about `COc1ccccc1C1CCNCC1` : %inh 5-HT7 exp_1 is 64

What the record says about `O=c1[nH]ncc2c1oc1ccccc12` : %inh 5-HT7 exp_1 is 3.34

What the record says about `Cc1cc(-c2ccccc2)n[nH]1` : %inh 5-HT7 exp_1 is 37

What the record says about `CS(=O)(=O)c1ccc(N2CCNCC2)cc1` : %inh 5-HT7 exp_1 is 29

What the record says about `CC(=O)c1ccc2c(c1)CCCN2` : %inh 5-HT7 exp_1 is -14

What the record says about `O=C1CNCCN1c1ccccc1` : %inh 5-HT7 exp_1 is 14

What the record says about `CS(=O)(=O)c1ccc(OC(F)(F)F)cc1` : %inh 5-HT7 exp_1 is 3.74

What the record says about `CC1(C)OC(=O)c2cc(Br)c(O)cc2O1` : %inh 5-HT7 exp_1 is 1.78

----------
Target: human thrombin (Homo sapiens, UniProt P00734)
Construct: human thrombin; purchased Sigma-Aldrich
Assay: Protease inhibitory assay, chromogenic substrate S-2238
Assay type: biochemical
Settings: Thrombin primary screening; substrate 40 µM; cmpd conc 500 µM
Would you mind telling me the reported V0 / Vi of each entry?
Form field (numeric): enter value without unit.

What the record says about `COC(=O)c1c(C)nc(C2CC2)[nH]c1=O` : V0 / Vi is 1.06

What the record says about `O=C(NC1CC1)c1ccccc1O` : V0 / Vi is 1.01

What the record says about `COc1ccccc1C1CCNCC1` : V0 / Vi is 0.93

What the record says about `Oc1ccc(C2CCNCC2)cc1` : V0 / Vi is 1.00

What the record says about `c1ccc2[nH]ccc2c1` : V0 / Vi is 0.97

What the record says about `O=C(CN1CCCC1)c1ccccc1Cl` : V0 / Vi is 0.99

What the record says about `Cc1nc(-c2ccccc2)cs1` : V0 / Vi is 0.97

What the record says about CC1CCc2sc(C(=O)O)cc2C1 (stereo not shown) : V0 / Vi is 1.40

What the record says about `CC(=O)c1ccc2c(c1)CNCC2` : V0 / Vi is 0.98

What the record says about O=C1NC(=O)C2(CCc3ccccc32)N1 (stereo not shown) : V0 / Vi is 0.98

What the record says about `O=C1CCN(c2ccccn2)CC1` : V0 / Vi is 0.99

What the record says about `Cc1ccc(CCNc2ccccc2)cn1` : V0 / Vi is 1.00

What the record says about CCc1ccc(NC2=NCCCS2)cc1 [SX-D2] : V0 / Vi is 0.96

Values were extracted from paper PMC8159961.
